tested on: TERT-RPE1; experiment: Here: values are normalized to the negative (DMSO; defined as 0% autophagy induction) and positive (250nM Torin1; mTOR inhibitor; defined as maximal inducer of autophagy = 100%) control compounds and represented as % of autophagy induction. […] The impact of autophagy induction on cells is complex and depends on the affected target. As such, the magnitude of a phenotype may not be equally mirrored in the %-value of autophagy induction and vice versa. The dynamics of the induction may indicate the mode of activation: e.g. activation via phosphorylation or a signaling cascade may occur fast, while activation via transcription factors may take considerably longer. […] Of note, treatment concentrations may be sub-optimal for specific compounds, leading to false negative annotations.; format: functional, Homo sapiens; settings: Compound Concentration 0.5 uM, Timepoint 60 hours, Culturing Media DMEM/F12 (1:1), 1 % Penicillin/Streptomycin, 10% Fetal bovin serum Add-On: No, Screening Media Control DMEM/F12 (1:1), Screening Media Samples DMEM/F12 (1:1)
reported_metric: autophagy induction (%)
Answers are plain numbers, in %.

[[record]]
smiles_text = "Cc1nnn(-c2ccc(-c3ccc(C4(C(=O)O)CC4)cc3)cc2)c1NC(=O)O[C@H](C)c1ccccc1"
system = "TERT-RPE1"
reported_metric = "autophagy induction"
u = "%"
measured_number = -15.4997


Go through the list and state autophagy induction for each entry.
1. O=C(Cc1ccccc1)Nc1nc2ccc(Cl)cc2c2nc(-c3ccco3)nn12
2. CCc1cc(C(C)=O)c(O)cc1OCCCCCC(C)(C)c1nn[nH]n1
3. COc1ccnc(N2CCC3(CCCN(Cc4c[nH]c5ccccc45)C3=O)CC2)n1
4. CC(C)NC(=O)c1ccc(C#Cc2ccncc2)cn1
5. C[C@H](CO)Nc1nc(SCc2cccc(Cl)c2F)nc2[nH]c(=O)sc12

[-15.2628, -17.4457, -18.0789, -16.4507, -20.3989]

Go through the list and state autophagy induction for each entry.
1. Cc1cc(C)cc(C(=O)N(C)[C@H](Cc2ccc(-c3ccccc3)cc2)C(=O)N[C@@H](Cc2c[nH]c3ccccc23)C(=O)O)c1
2. CS(=O)(=O)NC[C@H]1CC[C@H](Nc2nc3c(s2)CCSc2ccccc2-3)CC1
3. CSc1ccc(C(=O)N[C@@H]2CCCC[C@@H]2NC(=O)CNC(=O)c2cc(C(F)(F)F)ccc2NC(=O)NC(C)C)cc1

1. -6.49
2. -11.7228
3. -10.1253
